# experimental system: GlcA(b1-3)Gal
# test protocol: glycan array binding signal (z-score within array); higher = stronger binding
# measurement context: glycan notation: IUPAC condensed, linker removed
The full list was thinned out, with the strongest signals kept by preference.
Task for the reader: assign each of the following binders its reported glycan array binding signal (z-score).
Answers are plain numbers.

Before answering, review these 4 worked examples.
# binder, glycan array binding signal (z-score)
rows = [
    ("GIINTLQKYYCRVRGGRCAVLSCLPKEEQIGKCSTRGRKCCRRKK [Beta-Defensin 3 (Homo sapiens), P81534]", 1.72),
    ("NPA (Narcissus pseudonarcissus), C0HM45 (protein) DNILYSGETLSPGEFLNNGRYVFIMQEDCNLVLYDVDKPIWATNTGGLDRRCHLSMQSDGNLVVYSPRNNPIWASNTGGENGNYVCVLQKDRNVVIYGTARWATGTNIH", -0.148),
    ("SCA (Schizophyllum commune) (protein) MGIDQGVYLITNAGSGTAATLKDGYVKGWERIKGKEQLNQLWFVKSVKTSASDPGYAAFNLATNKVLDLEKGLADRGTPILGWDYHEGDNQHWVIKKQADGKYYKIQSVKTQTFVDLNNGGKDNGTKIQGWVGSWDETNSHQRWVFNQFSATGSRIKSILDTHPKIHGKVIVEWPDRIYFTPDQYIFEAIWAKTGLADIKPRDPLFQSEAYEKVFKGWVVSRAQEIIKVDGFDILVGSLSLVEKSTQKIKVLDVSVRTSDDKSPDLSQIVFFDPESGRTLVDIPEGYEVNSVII", 8.44),
    ("Gal 8 (Homo sapiens), O00214 (protein) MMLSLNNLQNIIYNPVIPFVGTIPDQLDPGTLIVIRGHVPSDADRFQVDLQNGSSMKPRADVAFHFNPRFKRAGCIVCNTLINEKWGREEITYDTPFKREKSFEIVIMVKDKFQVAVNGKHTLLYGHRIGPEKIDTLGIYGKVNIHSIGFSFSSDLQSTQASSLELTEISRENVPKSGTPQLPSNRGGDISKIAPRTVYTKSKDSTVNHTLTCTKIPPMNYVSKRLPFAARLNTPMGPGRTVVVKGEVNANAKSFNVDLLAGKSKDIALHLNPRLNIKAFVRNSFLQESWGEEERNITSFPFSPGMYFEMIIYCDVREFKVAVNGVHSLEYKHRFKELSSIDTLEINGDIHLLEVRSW", -0.451),
]

stdin: Could you share which glycan array binding signal (z-score) value was measured for his-Lectin-24A (Drosophila melanogaster) (protein) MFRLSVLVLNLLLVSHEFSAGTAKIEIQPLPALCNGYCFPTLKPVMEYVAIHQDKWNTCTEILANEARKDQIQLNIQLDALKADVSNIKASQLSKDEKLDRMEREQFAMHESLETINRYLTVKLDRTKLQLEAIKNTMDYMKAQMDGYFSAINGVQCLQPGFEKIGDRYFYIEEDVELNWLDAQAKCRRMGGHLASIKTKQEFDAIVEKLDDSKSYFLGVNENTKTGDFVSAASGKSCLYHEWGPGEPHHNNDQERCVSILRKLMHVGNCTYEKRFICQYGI ?
stdout: 0.317
